# tested.on: S1P1 (PathHunter CHO-K1 EDG1 β-Arrestin cell line) (Homo sapiens, UniProt P21453)
# Sequence (P21453 whole entry): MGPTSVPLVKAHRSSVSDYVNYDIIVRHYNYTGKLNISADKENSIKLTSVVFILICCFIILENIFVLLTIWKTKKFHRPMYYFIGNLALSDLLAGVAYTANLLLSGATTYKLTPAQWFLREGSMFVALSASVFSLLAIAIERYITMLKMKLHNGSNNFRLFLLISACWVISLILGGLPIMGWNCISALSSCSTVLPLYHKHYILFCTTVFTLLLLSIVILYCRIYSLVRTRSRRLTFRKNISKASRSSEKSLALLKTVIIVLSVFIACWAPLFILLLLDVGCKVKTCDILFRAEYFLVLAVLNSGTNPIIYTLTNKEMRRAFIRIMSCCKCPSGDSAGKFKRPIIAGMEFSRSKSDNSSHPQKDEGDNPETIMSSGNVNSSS
# Sequence (P32121 whole entry partner): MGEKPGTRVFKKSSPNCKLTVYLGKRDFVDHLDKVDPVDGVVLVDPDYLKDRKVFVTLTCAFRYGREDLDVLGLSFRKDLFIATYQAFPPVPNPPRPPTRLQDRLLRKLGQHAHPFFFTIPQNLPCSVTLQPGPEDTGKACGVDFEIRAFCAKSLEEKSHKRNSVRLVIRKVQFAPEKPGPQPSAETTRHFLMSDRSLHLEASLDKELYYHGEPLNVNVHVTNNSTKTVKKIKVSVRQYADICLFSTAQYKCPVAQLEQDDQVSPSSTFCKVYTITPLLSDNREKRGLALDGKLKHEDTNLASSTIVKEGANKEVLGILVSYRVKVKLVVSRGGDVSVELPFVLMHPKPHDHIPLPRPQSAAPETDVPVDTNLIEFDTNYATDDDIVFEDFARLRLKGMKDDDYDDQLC
# assay.procedure: S1P-1 β-Arrestin recruitment assay
# experimental.context: CHO-K1 EDG1 β-Arrestin cells, chemi-luminescence
# Procedure: S1P-1 β-Arrestin Recruitment Assay β-Arrestin recruitment assays were carried out using the PathHunter CHO-K1 EDG1 β-Arrestin cell line (DiscoveRx Corporation) in a chemi-luminescence detection assay. […] Cells were grown to 80% confluency in Growth Medium (F12 nutrient HAMS supplemented with 10% heat-inactivated USA FBS, 1% L-glutamax, 800 μg/ml Geneticin and 300 μg/ml Hygromycin). […] Luminescence was quantified using a Viewlux plate reader.
Where a name gives a salt, the structure may show the parent alone.
quantity.name: EC50

Sample CC(C)Oc1ccc(-c2nc(-c3cccc4c3CCN(C(=O)CCN)C4)no2)cc1C#N [Example 88, hydrochloride] — what was its EC50?
≤ 100 nM

Give its EC50 value. Item: N#Cc1cc(-c2nc(-c3ccc4c(c3)CCN(C(=O)CN)CC4)no2)ccc1OCC(F)(F)F [Example 191, hydrochloride]
≤ 10 nM

What value of EC50 has been recorded for this entry: CCOc1ccc(-c2nc(-c3ccc4c(c3)CCN(CC(O)CO)CC4)no2)cc1C#N (stereo not shown)
≤ 100 nM

# lookup: EC50 of CC(C)Oc1ccc(-c2nc(-c3ccc4c(c3)CCN(CC(=O)NC(CO)CO)CC4)no2)cc1C#N [Example 195, hydrochloride]
≤ 10 nM

Endpoint output: EC50 of CC(C)Oc1ccc(-c2nc(-c3ccc4c(c3)CCN(CCC(=O)N(C)C)CC4)no2)cc1C#N . Value?
≤ 100 nM

Fill blank: measured EC50 of the molecule Cc1c(-c2noc(-c3ccc(OC(C)C)c(C#N)c3)n2)ccc2c1CCN(CC(=O)NC(CO)CO)C2 [Example 125, hydrochloride] is ____.
≤ 10 nM

Name the recorded EC50 for Cc1c(-c2noc(-c3ccc(OC(C)C)c(C#N)c3)n2)ccc2c1CCN(C(=O)CN)C2 [Example 42, hydrochloride] .
≤ 10 nM
